Test system: HCT-116 colon
assay-summary: NCI tumour cell line growth inhibition, 48 h
observable: TGI

Query block: Consider the compound shown here: COC1=CC(=O)c2c(O)c3c(c(O)c2C1=O)CC(C)(O)OC3 (stereo not given) What is its recorded TGI?
Result block: 10.6 µM

Query block: Consider the compound shown here: N.N.NCCCCN.O=C([O-])CCl.O=C([O-])CCl.O=C([O-])CCl.O=C([O-])CCl.[Pt+4].[Pt+4] What is its recorded TGI?
Result block: > 50 µM

Query block: Consider the compound shown here: CCCCc1c2c(nc3c1CCc1cc(C=O)c(N)nc1-3)/C(=C/c1ccccc1)CCC2 What is its recorded TGI?
Result block: > 100 µM

Query block: Consider the compound shown here: CC1CN=C(c2ccc3c(c2)Cc2cc(C4=NCC(C)N4)ccc2-3)N1 (stereo not given) What is its recorded TGI?
Result block: > 100 µM

Query block: Consider the compound shown here: COc1ccc(/C=N/N=C(N)N)c(C(=O)O)c1OC What is its recorded TGI?
Result block: > 100 µM

Query block: Consider the compound shown here: COC1=C(NC(C)=O)C(=O)c2nc3n(c2C1=O)CCC3 What is its recorded TGI?
Result block: 29.4 µM

Query block: Consider the compound shown here: CCSc1sc(-c2ccc(C)cc2)nc1[P+](c1ccccc1)(c1ccccc1)c1ccccc1 What is its recorded TGI?
Result block: 1.17 µM

Query block: Consider the compound shown here: NC(=O)c1ncn(C2CCC(CP(=O)(O)O)C2)c1N (stereo not given) What is its recorded TGI?
Result block: > 100 µM

Query block: Consider the compound shown here: O=C(c1ccc(Cl)cc1)N(C(=S)N1CCN(c2ccccc2)CC1)C1CCCCC1 What is its recorded TGI?
Result block: > 100 µM

Query block: Consider the compound shown here: O=C(OCc1ccccc1[N+](=O)[O-])N1c2ccccc2[C@@]23O[C@]24CCC[C@H]3C#C/C=C\C#C[C@H]14 What is its recorded TGI?
Result block: > 100 µM

###

Please provide measured TGI for the entries that follow.
Test system: IGROV1 ovarian
assay-summary: NCI tumour cell line growth inhibition, 48 h

Query block: Consider the compound shown here: Cc1cc(C)c2c(=O)n(CC(O)CN3CCN(c4ncccn4)CC3)sc2n1 (centres undefined) What is its recorded TGI?
Result block: > 100 µM

Query block: Consider the compound shown here: Cn1c(=O)c(C2c3ccccc3Oc3c2c(=O)n(C)c2ccccc32)c(O)c2ccccc21 (centres undefined) What is its recorded TGI?
Result block: > 100 µM

Query block: Consider the compound shown here: COc1cc(OC)cc(-c2n[nH]nc2-c2ccc3c(c2)OCO3)c1 What is its recorded TGI?
Result block: > 100 µM

Query block: Consider the compound shown here: N.N.NCCCCN.O=C([O-])CCl.O=C([O-])CCl.O=C([O-])CCl.O=C([O-])CCl.[Pt+4].[Pt+4] What is its recorded TGI?
Result block: > 50 µM

Query block: Consider the compound shown here: c1ccc2c(c1)N=c1ccccc1=P21c2ccccc2Nc2ccccc21 What is its recorded TGI?
Result block: 10.6 µM

Query block: Consider the compound shown here: CN(C)c1ccc(C(=C2C=CC(=[N+](C)C)C=C2)c2c(O)c(S(=O)(=O)[O-])cc3cc(S(=O)(=O)O)ccc23)cc1 What is its recorded TGI?
Result block: > 100 µM

Query block: Consider the compound shown here: C[N+](C)(C)CC(=O)NC(=O)N/N=C\C(CC#N)CN(Cc1ccccc1)Cc1ccccc1 (centres undefined) What is its recorded TGI?
Result block: > 100 µM

Query block: Consider the compound shown here: CC1CCC(O)/C=C/C(=O)OC(C)C(O)/C=C/C(=O)O1 (centres undefined) What is its recorded TGI?
Result block: > 100 µM

Query block: Consider the compound shown here: CCCCCCCC(=O)SCC/C=C/[C@@H]1CC(=O)NCc2cccc(n2)CN(Cc2ccc(Cl)cc2)CC(=O)N[C@@H](C(C)C)C(=O)O1 What is its recorded TGI?
Result block: > 100 µM

Query block: Consider the compound shown here: COc1cc2c3c(c1OC)C1(C=CC(=O)C=C1)CC3N(C(=O)OC(C)(C)C(Cl)(Cl)Cl)CC2 (centres undefined) What is its recorded TGI?
Result block: 41.9 µM

Query block: Consider the compound shown here: COc1cc(C2CC(c3ccc(C)cc3)=NN2C(C)=O)ccc1Oc1ccnc2cc(Cl)ccc12 (centres undefined) What is its recorded TGI?
Result block: > 100 µM

Query block: Consider the compound shown here: Cc1cc(S(=O)(=O)Nc2nc(N)n(-c3ccccc3)n2)c(S)cc1Cl What is its recorded TGI?
Result block: > 100 µM

Query block: Consider the compound shown here: O=C(/C=C(\O)C(=O)O)/C=C(\O)c1ccc(Cl)cc1 What is its recorded TGI?
Result block: > 100 µM

Query block: Consider the compound shown here: O=C(/C=C/c1ccco1)c1ccc(Nc2ccnc3cc(Cl)ccc23)cc1 What is its recorded TGI?
Result block: > 100 µM

Query block: Consider the compound shown here: COc1ccc(CNCCN2C(=O)c3ccc4c5c(ccc(c35)C2=O)C(=O)N(CCNCc2ccc(OC)cc2)C4=O)cc1 What is its recorded TGI?
Result block: 0.67 µM

Query block: Consider the compound shown here: c1cc(C2O[C@H]3CCCN3[C@@H]2c2ccncc2)ccn1 (some centres undefined) What is its recorded TGI?
Result block: > 100 µM

Query block: Consider the compound shown here: Cc1cc(C)c2nc(Nc3nc(C)c(C)c(=O)[nH]3)nc(C)c2c1 What is its recorded TGI?
Result block: 12.8 µM

Query block: Consider the compound shown here: O=c1[nH]c(=O)n(COCCO)cc1-c1ccccc1 What is its recorded TGI?
Result block: > 100 µM

Query block: Consider the compound shown here: NCCCCN(CCCN)C(=O)OCc1ccccc1 What is its recorded TGI?
Result block: > 100 µM

Query block: Consider the compound shown here: O=C(NCCc1ccccc1)C(c1csc2ccccc12)N(C(=O)CCl)c1ccc(-c2cnco2)cc1 (centres undefined) What is its recorded TGI?
Result block: 0.331 µM

Query block: Consider the compound shown here: CCCCOP(=O)(OCCCC)C(NS(=O)(=O)c1ccccc1)(C(=O)OCC)C(F)(F)F (centres undefined) What is its recorded TGI?
Result block: 65.6 µM

Query block: Consider the compound shown here: C=CC[n+]1c(/C=C2\Sc3ccccc3N2C)sc(-c2ccccc2)c1-c1ccccc1 What is its recorded TGI?
Result block: 13.7 µM

Query block: Consider the compound shown here: Cc1cc(CC(O)(C(F)(F)F)C(F)(F)F)cc(CC(O)(C(F)(F)F)C(F)(F)F)n1 What is its recorded TGI?
Result block: 11.2 µM

Query block: Consider the compound shown here: COC(=O)C1=C(O)C(C(=O)OC)[C@@]2(O)[C@@H](C(=O)OC)C(c3ccc(OC(=O)C(Cc4ccccc4)NC(C)=O)cc3)C[C@@H]1[C@@H]2C(=O)OC (some centres undefined) What is its recorded TGI?
Result block: > 100 µM
